The entries below are paired with their reported GI50.
tested on: SK-MEL-28; experiment: NCI tumour cell line growth inhibition, 48 h
The source made the active and inactive calls. Cut-off read from the data, not from the text of the source: active = GI50 up to about 1.1 µM and inactive = higher.

Use the examples below as a reference point.
COC1(OC)CCC2C1C1CCC(OC)(OC)C21 (centres undefined)	> 50 µM (inactive)
Cc1cc(=O)n2c3c(c4c(cc13)c(CN(C)C)cc(=O)n4C)OC2	31.8 µM (inactive)
COc1ccc(S(=O)(=O)O)cc1NS(=O)(=O)c1ccc(C)cc1	> 100 µM (inactive)
O=C(N/N=C/c1c(-c2ccccc2)no[n+]1[O-])N1CCOCC1	> 100 µM (inactive)
O=C1c2ccccc2N(O)C1(c1ccccc1)C1CCCC=C1N1CCOCC1 (centres undefined)	83.8 µM (inactive)
O=C(O)Cc1ccc(-n2nnc3c(=O)[nH][nH]c(=O)c32)cc1	> 100 µM (inactive)
NC(=O)COC(=O)c1c(Cl)nc2sccn12	> 100 µM (inactive)
FC(F)(F)c1nc(-c2ccccc2)oc1Sc1nnc(Sc2oc(-c3ccccc3)nc2C(F)(F)F)s1	> 55.3 µM (inactive)
N#CCN(Cc1ccccc1)[C@H]1CCC[C@]1(O)/C=C/c1ccc2c(c1)OCO2	17.3 µM (inactive)
CCOP(=O)(OCC)C(N)Cc1ccc(OC)c(OC)c1 (centres undefined)	> 100 µM (inactive)

*Q* Using the record for `CC(=O)Oc1cc(S(=O)(=O)Nc2n[nH]c(Nc3ccc(C)cc3)n2)c(S)cc1Cl` , state its measured GI50.
*A* > 100 µM (inactive)

*Q* Using the record for `O=c1oc2ccccc2cc1/C=N/N1C(=S)N(c2ccccc2)C(=N\c2ccccc2)/C1=N/c1ccccc1` , state its measured GI50.
*A* > 100 µM (inactive)

*Q* Using the record for `CSC(=S)Nc1cc(C)cc(C)n1` , state its measured GI50.
*A* > 31.6 µM (inactive)

*Q* Using the record for `O=C1C=C(N2CCCC2)C(=O)c2c(O)ccc(O)c21` , state its measured GI50.
*A* > 10 µM (inactive)
